settings: 313.15 K; 100 kPa; Liquid
assay-metric: mass density (kg/m3)
Express your answer in kg/m3, writing the number without its unit.

Req: Using known records, supply mass density for CCCCCOC(C)=O [pentyl ethanoate]
Resp: 856.7

Req: Report mass density for CCCOC(C)=O [propyl ethanoate]
Resp: 864.9

Req: Output mass density of CCOC(C)=O [ethyl acetate]
Resp: 875.2

Req: Recall and state the measured mass density for CCCCOC(C)=O [butyl ethanoate] .
Resp: 859.9

* * *

Listed here: items and their measured mass density.
conditions: 313.15 K; 2000 kPa; Liquid
Give your result in kg/m3 as a bare value.

Worked examples, 3 compounds total:
compound: CCCCCOC(C)=O [pentyl ethanoate]
mass density (kg/m3): 858.3
//
compound: CCOC(C)=O [ethyl acetate]
mass density (kg/m3): 877.2
//
compound: CCCOC(C)=O [propyl ethanoate]
mass density (kg/m3): 866.6

Moving on to another compound below.
Req: Input CCCCOC(C)=O [butyl ethanoate] , output reported mass density.
Resp: 861.7

* * *

conditions: 308.15 K; 25000 kPa; Liquid
Numbers after ± are expanded uncertainties.
Readings of mass density for the listed compounds
Please don't drop the unit; write it after the number.

Reference set, count: 3
compound: CCCOC(C)=O [propyl ethanoate]
endpoint-value: 892.4 ± 6.3 kg/m3
--
compound: CCOC(C)=O [ethyl acetate]
endpoint-value: 905.4 ± 6.1 kg/m3
--
compound: CCCCCOC(C)=O [pentyl ethanoate]
endpoint-value: 880.8 ± 6.3 kg/m3

Could you now consider this next compound?
Req: Input CCCCOC(C)=O [butyl ethanoate] , output reported mass density.
Resp: 885.6 ± 6.1 kg/m3

* * *

details: 348.15 K; 30000 kPa; Liquid
# reported mass density; entries follow
The answer is to be given in kg/m3; state only the numeric part.

Record excerpt, results attached:
compound: CCCCCOC(C)=O [pentyl ethanoate]
mass density [kg/m3]: 853.3
//
compound: CCCCOC(C)=O [butyl ethanoate]
mass density [kg/m3]: 856.6
//
compound: CCCOC(C)=O [propyl ethanoate]
mass density [kg/m3]: 860.6

Turning now to a further record.
Req: Consider the compound CCOC(C)=O [ethyl acetate] and give its recorded mass density.
Resp: 870.2

* * *

Reported mass density values for a set of compounds
conditions: 303.15 K; 1000 kPa; Liquid
± gives the expanded uncertainty stated by the source.

compound: CCCOC(C)=O [propyl ethanoate]
endpoint-value: 876.8 ± 3.4 kg/m3
--
compound: CCCCCOC(C)=O [pentyl ethanoate]
endpoint-value: 867.1 ± 3.4 kg/m3
--
compound: CCCCOC(C)=O [butyl ethanoate]
endpoint-value: 871.1 ± 3.3 kg/m3

Let us examine a further case.
Req: Quickly give me recorded mass density for CCOC(C)=O [ethyl acetate]
Resp: 888.5 ± 3.2 kg/m3

* * *

settings: 303.15 K; 5000 kPa; Liquid
Items are presented alongside their recorded mass density.
Use kg/m3 as the unit, but write only the number.

Req: Answer with reported mass density of CCCOC(C)=O [propyl ethanoate]
Resp: 880.8

Req: Give recorded mass density. CCCCCOC(C)=O [pentyl ethanoate]
Resp: 870.5

Req: Hello, please tell me recorded mass density for this one: CCOC(C)=O [ethyl acetate]
Resp: 892.7

Req: Check the records and state mass density for CCCCOC(C)=O [butyl ethanoate]
Resp: 874.7

The values you see were collected from the NIST ThermoML archive (doi:10.1021/je060339m).
